# Experiment Summary: physchem
# Measurement Conditions: octanol/water
# Description: Partition coefficient of Zwitterion (logD)
Measured logD, listed per entry for reference.
Readout: logD

Compound	Endpoint Value
Cc1cc(=O)oc2cc(O[C@@H]3O[C@H](C(=O)O)[C@@H](O)[C@H](O)[C@H]3O)ccc12	-0.39
COc1ccc2c3c1O[C@H]1[C@@H](O)C=C[C@H]4[C@@H](C2)NCC[C@@]341 [NORCODEINE]	0.69
CC(=O)O[C@H]1C=C[C@H]2[C@H]3Cc4ccc(O)c5c4[C@@]2(CCN3C)[C@H]1O5	1.55
CN1CC[C@]23c4c5ccc(O[C@@H]6O[C@H](C(=O)O)[C@@H](O)[C@H](O)[C@H]6O)c4O[C@H]2[C@@H](O)C=C[C@H]3[C@H]1C5 [MORPHINE 3-GLUCURONIDE]	-1.1
CC(=O)Oc1ccc2c3c1O[C@H]1[C@@H](OC(C)=O)C=C[C@H]4[C@@H](C2)N(C)CC[C@@]341 [DIACETYLMORPHINE]	1.58

---

# Experiment Summary: physchem
# Measurement Conditions: buffer, pH 7.4
# Description: Log D of compound; LogD at pH 7.4
Measured logD, listed per entry for reference.

Compound	logD
CC(=O)O[C@H]1C=C[C@H]2[C@H]3Cc4ccc(O)c5c4[C@@]2(CCN3C)[C@H]1O5	0.61
COc1ccc2c3c1O[C@H]1[C@@H](O)C=C[C@H]4[C@@H](C2)NCC[C@@]341 [NORCODEINE]	-1.26
CO[C@]12CC[C@@]3(C[C@@H]1[C@](C)(O)C(C)(C)C)[C@H]1Cc4ccc(O)c5c4[C@@]3(CCN1CC1CC1)[C@H]2O5 [BUPRENORPHINE]	3.93
CN1CC[C@]23c4c5ccc(O[C@@H]6O[C@H](C(=O)O)[C@@H](O)[C@H](O)[C@H]6O)c4O[C@H]2[C@@H](O)C=C[C@H]3[C@H]1C5 [MORPHINE 3-GLUCURONIDE]	-1.12
CC(=O)Oc1ccc2c3c1O[C@H]1[C@@H](OC(C)=O)C=C[C@H]4[C@@H](C2)N(C)CC[C@@]341 [DIACETYLMORPHINE]	0.85
COc1ccc2c3c1O[C@H]1[C@@H](O)C=C[C@H]4[C@@H](C2)N(C)CC[C@@]341 [CODEINE]	0.22
